- Test system: S. aureus USA400
- Format: cell-based
Non-standard residues stand in square brackets, D forms with d. Residues, ends and D or L forms follow the SMILES beside them. *: point of attachment. Decanoyl = CCCCCCCCCC(=O)*; Octanoyl = CCCCCCCC(=O)*
endpoint.label: Minimal inhibitory concentration, USA400

Sample CCCCCCCC(=O)N[C@H](CCCCN)C(=O)N[C@H](CCCNC(=N)N)C(=O)N[C@@H](C(=O)N[C@H](Cc1c[nH]c2ccccc12)C(=O)N[C@H](CCC(N)=O)C(=O)N[C@H](CCCNC(=N)N)C(=O)N[C@@H](C(=O)N[C@H](CCCCN)C(=O)N[C@H](CC(=O)O)C(=O)N[C@H](Cc1ccccc1)C(N)=O)[C@H](C)CC)[C@H](C)CC [Peptide C8-KR10d] (Octanoyl-[dK][dR][dI][dW][dQ][dR][dI][dK][dD][dF]-NH2) ; Minimal inhibitory concentration, USA400 observed: 3.1 µM

Entry CCCCCCCCCC(=O)N[C@@H](CCCCN)C(=O)N[C@@H](CCCNC(=N)N)C(=O)N[C@H](C(=O)N[C@@H](Cc1c[nH]c2ccccc12)C(=O)N[C@@H](CCC(N)=O)C(=O)N[C@@H](CCCNC(=N)N)C(=O)N[C@H](C(=O)N[C@@H](CCCCN)C(N)=O)[C@@H](C)CC)[C@@H](C)CC [Peptide C10-KR8] (Decanoyl-KRIWQRIK-NH2) — recorded Minimal inhibitory concentration, USA400 = 3.1 µM

So for CCCCCCCC(=O)N[C@@H](CCCCN)C(=O)N[C@@H](CCCNC(=N)N)C(=O)N[C@H](C(=O)N[C@@H](Cc1c[nH]c2ccccc12)C(=O)N[C@@H](CCC(N)=O)C(=O)N[C@@H](CCCNC(=N)N)C(=O)N[C@H](C(=O)N[C@@H](CCCCN)C(=O)N[C@@H](CC(=O)O)C(=O)N[C@@H](Cc1ccccc1)C(N)=O)[C@@H](C)CC)[C@@H](C)CC [Peptide C8-KR10] (Octanoyl-KRIWQRIKDF-NH2) , the logged Minimal inhibitory concentration, USA400 turned out to be 3.1 µM

###

- Tested on: human red blood cells (hRBCs)
- Type: cell-based
- condition.notes: red cells of human, 1 h
Residues, ends and D or L forms follow the SMILES beside them. *: point of attachment. Lauroyl = CCCCCCCCCCCC(=O)*; Hexanoyl = CCCCCC(=O)*
endpoint.label: HC50

CCCCCC(=O)N[C@@H](CCCCN)C(=O)N[C@@H](CCCNC(=N)N)C(=O)N[C@H](C(=O)N[C@@H](Cc1c[nH]c2ccccc12)C(=O)N[C@@H](CCC(N)=O)C(=O)N[C@@H](CCCNC(=N)N)C(N)=O)[C@@H](C)CC [Peptide C6-KR6] (Hexanoyl-KRIWQR-NH2) yielded HC50 of >200 µM

GET /value?item= CCCCCCCCCCCC(=O)N[C@@H](CCCCN)C(=O)N[C@@H](CCCNC(=N)N)C(=O)N[C@H](C(=O)N[C@@H](Cc1c[nH]c2ccccc12)C(=O)N[C@@H](CCC(N)=O)C(=O)N[C@@H](CCCNC(=N)N)C(=O)N[C@H](C(=O)N[C@@H](CCCCN)C(=O)N[C@@H](CC(=O)O)C(=O)N[C@@H](Cc1ccccc1)C(N)=O)[C@@H](C)CC)[C@@H](C)CC [Peptide C12-KR10] (Lauroyl-KRIWQRIKDF-NH2) &field=HC50 returns <25 µM
